The measurements presented in this section are drawn from patent US4740601A.

Exercise: state measured MIC for each of the compounds provided.
System: Trichophyton mentagrophytes QM 248
assay: antimicrobial activity, MIC
Type: cell-based
assay.conditions: Trichophyton mentagrophytes, QM248, Trichophyton mentagrophytes QM 248; read-out: MIC

In the examples that follow, each entry is paired with its recorded MIC.
Prompt: Would you kindly share the measured MIC for CCCOc1ccccc1C(=CSCCC)n1ccnc1 (single isomer, unassigned) [Compound 39] ?
Response: 0.39 µg/mL

Prompt: Which MIC reading was recorded for the compound CCCCCCOc1ccccc1C(=COC)n1ccnc1 (single isomer, unassigned) [Compound 73] ?
Response: 3.12 µg/mL

Next:
Prompt: Looking for the measured MIC of CCCCCOc1ccccc1C(=CSCC)n1ccnc1 (single isomer, unassigned) [Compound 34] , can you help?
Response: < 0.2 µg/mL
